System: CAKI-1
ASSAY_TEXT: NCI-60 cytotoxicity screen
Assay type: cell-based
TEST_CONDITIONS: Homo sapiens, NCI-60, 48 h, renal
pIC50: −log10 of the molar value.
Respond with Fulfilled for pIC50 values of 6 and above, Not fulfilled for values below.

[
  {
    "SMILES_CODE": "C=C(CN1CCN(c2ccccc2C(F)(F)F)CC1)c1ccc(C(=O)Nc2ccccc2N)cc1",
    "LABEL": "Not fulfilled"
  }
]

Determine whether measured pIC50 meets or exceeds 6 for `C=C(CN1CCN(c2cccc(C(F)(F)F)c2)CC1)c1ccc(C(=O)Nc2ccccc2N)cc1`
Fulfilled

Determine whether measured pIC50 meets or exceeds 6 for `C=C(CN1CCN(c2ccc(C(F)(F)F)cc2)CC1)c1ccc(C(=O)Nc2ccccc2N)cc1`
Not fulfilled

Determine whether measured pIC50 meets or exceeds 6 for `C=C(CN1CCN(c2cccc(C(F)(F)F)n2)CC1)c1ccc(C(=O)Nc2ccccc2N)cc1`
Fulfilled

====

IC50 for assorted compounds
Test system: A549
ASSAY_TEXT: NCI-60 cytotoxicity screen
Format: cell-based
TEST_CONDITIONS: Homo sapiens, NCI-60, 48 h, NSCLC
Report only the number, with the unit µM understood.

[
  {
    "COMPOUND": "C=C(CN1CCN(c2ccccc2C(F)(F)F)CC1)c1ccc(C(=O)Nc2ccccc2N)cc1 [Compound 3]",
    "RESULT_UNIT": "µM",
    "IC50": 4.17
  },
  {
    "COMPOUND": "C=C(CN1CCN(c2ccc(C(F)(F)F)cc2)CC1)c1ccc(C(=O)Nc2ccccc2N)cc1 [Compound 5]",
    "RESULT_UNIT": "µM",
    "IC50": 6.43
  },
  {
    "COMPOUND": "C=C(CN1CCN(c2cccc(C(F)(F)F)c2)CC1)c1ccc(C(=O)Nc2ccccc2N)cc1 [Compound 4]",
    "RESULT_UNIT": "µM",
    "IC50": 1.48
  },
  {
    "COMPOUND": "C=C(CN1CCN(c2cccc(C(F)(F)F)n2)CC1)c1ccc(C(=O)Nc2ccccc2N)cc1 [Compound 7]",
    "RESULT_UNIT": "µM",
    "IC50": 3.32
  },
  {
    "COMPOUND": "C=C(CN1CCN(c2ccccn2)CC1)c1ccc(C(=O)Nc2ccccc2N)cc1 [Compound 6]",
    "RESULT_UNIT": "µM",
    "IC50": 2.39
  }
]

Turning now to a further record.
Send back A549 IC50 of Nc1ccccc1NC(=O)c1ccc(CNC(=O)OCc2cccnc2)cc1 [Compound 1, Entinostat, reference compound] only.
3.28
